# Test system: HepG2 cells transduced with AdCYP2B6
# TEST_DESCRIPTION: Cell viability (PI), IC50, AdCYP2B6-HepG2
# Assay type: cell-based
# STUDY_CONDITIONS: Homo sapiens, ADV CYP2B6 x1, 24 h, unit inferred, tested range in µM, read-out: IC50 (cell viability), ADV dose x1
READOUT_TYPE: IC50

Req: State its IC50 for this compound: CCCC(CCC)C(=O)O
Resp: 13300 µM

====

# System: HepG2 cells transduced with AdCYP1A2
# TEST_DESCRIPTION: HCS hepatotoxicity assay (MEC, TR), AdCYP1A2-HepG2
# Assay type: cell-based, human
# STUDY_CONDITIONS: AdCYP 1A2 10x; 24 h; unit inferred, tested range in µM
READOUT_TYPE: MEC Apoptosis (µM)
Report as a plain number; the unit µM is understood.

Req: State its MEC Apoptosis for this molecule: CC(C)C(=O)Nc1ccc([N+](=O)[O-])c(C(F)(F)F)c1 [Flutamide]
Resp: 125
